Test: Biochemical Assay: Test compounds were placed in a Greiner Bio-One (Monroe, N.C.) 1536-well black solid bottom assay plate. 200 millimolar (mM) Tris HCl, pH 7.4, 100 micromolar (μM) EDTA and 0.01% TWEEN-20, final concentration, was used as the assay buffer. The LDHA reagent was 2 nanomolar (nM) Human LDHA (Meridian Life Science, Inc., Memphis, Tenn.), final concentration, in assay buffer. The substrate reagent was 0.06 mM NADH and 0.2 mM sodium pyruvate, final concentration, in assay buffer. The resazurin/diaphorase coupling reagent was 0.037 mM resazurin and 0.133 milligrams per milliliter (mg/mL) diaphorase, final concentration, in assay buffer. The inhibition of LDHA activity was measured by fluorescence emission.
measurement kind: IC50

So, N[S+](=O)([O-])c1ccc(Cc2c(-c3ccc(F)c(-c4ccc(F)c(F)c4)c3)nn(-c3nc(C(=O)O)cs3)c2CC2CC2)cc1F ? Its IC50 was < 100 nM
